system: OVCAR-8; experiment: Growth inhibition of human OVCAR8 cells after 96 hrs by trypan blue exclusion assay; type: functional, cell-based; conditions: OVCAR-8, 96 h
pIC50 by entry:
Entry type: numeric. Quantity: pIC50, the -log10 of concentration in molar units.

smiles string	readout	reading
COc1ccc(/C=C\c2cc(OC)c(OC)c(OC)c2)cc1O	pIC50	8.40

// below: pIC50 requested for another compound
# input Specify pIC50 for CC(=O)O[C@H]1C(=O)[C@@]2(C)[C@H]([C@H](OC(=O)c3ccccc3)[C@]3(O)C[C@H](OC(=O)[C@H](O)[C@@H](NC(=O)c4ccccc4)c4ccccc4)C(C)=C1C3(C)C)[C@]1(OC(C)=O)CO[C@@H]1C[C@@H]2O and stop.
# output 8.40
